# Lookup of reported pIC50 keyed by entry
Target: JAK1 (Homo sapiens (Human), UniProt P23458)
Sequence (P23458 whole entry): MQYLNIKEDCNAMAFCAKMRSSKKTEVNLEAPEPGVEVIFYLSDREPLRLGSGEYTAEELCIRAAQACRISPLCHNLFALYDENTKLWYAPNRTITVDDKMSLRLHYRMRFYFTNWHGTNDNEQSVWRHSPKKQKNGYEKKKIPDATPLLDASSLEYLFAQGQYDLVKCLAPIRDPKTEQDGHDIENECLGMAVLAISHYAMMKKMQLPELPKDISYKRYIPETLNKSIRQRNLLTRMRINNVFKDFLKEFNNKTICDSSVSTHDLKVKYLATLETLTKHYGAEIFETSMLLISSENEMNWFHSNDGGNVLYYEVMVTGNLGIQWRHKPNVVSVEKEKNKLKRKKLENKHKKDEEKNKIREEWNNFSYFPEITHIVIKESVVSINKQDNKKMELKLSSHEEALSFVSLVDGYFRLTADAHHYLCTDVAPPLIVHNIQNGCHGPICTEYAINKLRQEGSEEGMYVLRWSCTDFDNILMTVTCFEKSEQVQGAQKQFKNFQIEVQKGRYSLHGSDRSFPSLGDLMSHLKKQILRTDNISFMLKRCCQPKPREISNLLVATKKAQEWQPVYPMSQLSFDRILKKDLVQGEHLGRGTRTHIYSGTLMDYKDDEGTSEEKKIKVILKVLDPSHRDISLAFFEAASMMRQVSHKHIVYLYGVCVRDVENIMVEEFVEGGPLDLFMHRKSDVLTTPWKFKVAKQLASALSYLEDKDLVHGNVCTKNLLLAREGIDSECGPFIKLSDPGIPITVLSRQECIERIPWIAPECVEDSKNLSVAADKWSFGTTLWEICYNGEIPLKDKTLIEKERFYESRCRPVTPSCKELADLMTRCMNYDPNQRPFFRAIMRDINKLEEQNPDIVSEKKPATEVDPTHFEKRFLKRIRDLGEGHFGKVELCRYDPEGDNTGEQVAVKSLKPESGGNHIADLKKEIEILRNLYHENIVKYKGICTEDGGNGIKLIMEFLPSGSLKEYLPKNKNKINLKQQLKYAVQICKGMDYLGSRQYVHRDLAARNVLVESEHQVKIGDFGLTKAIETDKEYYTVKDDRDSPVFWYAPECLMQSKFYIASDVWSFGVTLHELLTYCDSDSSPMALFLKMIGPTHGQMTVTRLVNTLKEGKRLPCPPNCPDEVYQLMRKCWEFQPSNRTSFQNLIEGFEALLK
Assay: Analysis of JAK1 activity inhibition ability (ADP-Glo Kinase Assay)
Type: biochemical
Conditions: JAK1 enzyme, ADP-Glo luminescence, ATP 250 uM, IRS-itide substrate, 30° C. 40 minutes; read-out: IC50
pIC50: −log10 of the molar value.

Use these answered entries as a reference point.
CCc1cc(-c2cc(NC(=O)C3CC3)nc3[nH]ccc23)ccc1NS(=O)(=O)C1CCC1 :: > 7.70
O=C(Nc1cc(-c2ccc(OS(=O)(=O)CC3CCOC3)cc2)c2cc[nH]c2n1)C1CC1 (centres unmarked) :: 6.70 to 7.70
Cc1cc(NS(=O)(=O)C2CC2)ccc1-c1cc(NC(=O)C2CC2)nc2[nH]ccc12 :: 6.70 to 7.70
O=C(Nc1cc(C2=CC3CCC(C2)N3S(=O)(=O)C2CC2)c2cc[nH]c2n1)C1CC1 (centres unmarked) :: 6.70 to 7.70
CC(C)(C)CS(=O)(=O)Nc1ccc(-c2cc(NC(=O)C3CC3)nc3[nH]ccc23)cc1F :: > 7.70

input: Any idea what pIC50 was measured for CCNC(=S)N1C2C=C(c3cc(NC(=O)C4CC4)nc4[nH]ccc34)CC1CC2 (centres unmarked) ?
output: > 7.70

input: Item under review: `C[C@@H]1CN(C(=O)c2ccc(Cl)nc2)CC=C1c1cc(NC(=O)C2CC2)nc2[nH]ccc12` . Reported pIC50?
output: > 7.70

input: State the recorded pIC50 for this entry: `O=C(Nc1cc(-c2ccc(CC(=O)N3CC[S+]([O-])CC3)cc2)c2cc[nH]c2n1)C1CC1`
output: 6.70 to 7.70

----------
Property: pIC50; scope: individual compounds
Target: JAK1 (Homo sapiens (Human))
Test: Analysis of JAK1 activity inhibition ability (ADP-Glo Kinase Assay)
Type: biochemical
Details: JAK1 enzyme, ADP-Glo luminescence, ATP 250 uM, IRS-itide substrate, 30° C. 40 minutes; read-out: IC50
pIC50: −log10 of the molar value.

CCS(=O)(=O)N1C2CCC1CN(c1nc(NC(=O)C3CC3)nc3[nH]ccc13)C2 :: 6.70 to 7.70
O=C(Nc1cc(-c2ccc(NS(=O)(=O)CC3CCCCC3)cc2)c2cc[nH]c2n1)C1CC1 :: > 7.70

input: Request the reported pIC50 associated with CCC1CN(C(=O)CCC#N)CC=C1c1cc(NC(=O)C2CC2)nc2[nH]ccc12 (stereo not shown)
output: > 7.70

input: Look up pIC50 for this compound: `O=C(Nc1cc(-c2ccc(NS(=O)(=O)c3ccc4c(c3)OCO4)cc2)c2cc[nH]c2n1)C1CC1`
output: > 7.70

----------
Target: UniProtKB P23458
Assay: Analysis of JAK1 activity inhibition ability (ADP-Glo Kinase Assay)
Assay type: biochemical
Details: JAK1 enzyme, ADP-Glo luminescence, ATP 250 uM, IRS-itide substrate, 30° C. 40 minutes; read-out: IC50
Observable: IC50

input: Give the measured IC50 of Cc1cc(NS(=O)(=O)NCC(F)(F)F)ccc1-c1cc(NC(=O)C2CC2)nc2[nH]ccc12 [Example 227] .
output: 20 to 200 nM

----------
Target: JAK1 (Homo sapiens (Human))
Experiment: Analysis of JAK1 activity inhibition ability (ADP-Glo Kinase Assay)
Format: biochemical
Details: JAK1 enzyme, ADP-Glo luminescence, ATP 250 uM, IRS-itide substrate, 30° C. 40 minutes; read-out: IC50
pIC50: −log10 of the molar value.
Observable: pIC50

// known answers, use as guide
O=C(Nc1cc(-c2ccc(OCc3ccc(F)cc3)cc2)c2cc[nH]c2n1)C1CC1 :: < 6.70
O=C(Nc1nc(-c2ccc(NC(=S)NC3CCCCC3)cc2)c2cc[nH]c2n1)C1CC1 :: < 6.70
O=C(Nc1cc(C2=CCN(S(=O)(=O)N3CCOCC3)CC2)c2cc[nH]c2n1)C1CC1 :: 6.70 to 7.70

input: Fill blank: measured pIC50 of the compound `O=C(Nc1cc(C2=CCN(S(=O)(=O)CCCF)CC2)c2cc[nH]c2n1)C1CC1` is ____.
output: 6.70 to 7.70
